Experiment: endothelial E-selectin expression blockers – imaging, HUVEC, immunofluorescence, MLSMR starter and 10KST1 sets, primary screen (AID 487);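 note: 100% = median nuclei count of all wells on the same plate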
Settings: HUVEC TNFalpha-induced E-selectin immunofluorescence imaging, at 2 µM; measured here: cell number, toxicity
This section presents compounds with their documented nuclei count values.
Record the value in %, omitting the unit from your answer.

Example results:
Cc1cccc(-n2c(N)c(C(=O)N3CCN(C)CC3)sc2=S)c1; 114
COC(=O)c1onc(C(=O)c2ccccc2)c1C(=O)OC; 114
CCOc1cc(C2C(C(=O)c3ccccc3)=C(C(=O)OC)Nc3nnnn32)ccc1O (stereo not given); 157
CCOc1ncccc1C(=O)Nc1ccc2c(C)cc(=O)oc2c1; 96.9
Cc1nc2nc(SCC(=O)NCc3ccco3)nn2c(C)c1Cc1ccccc1; 126

nuclei count reading for `Cc1ccc(-n2nnnc2SCC(=O)N2CCc3ccccc3C2)cc1` : 148

nuclei count reading for CCOC(=O)c1sc(N2C(=O)C(O)=C(C(=O)c3ccco3)C2c2ccccc2)nc1C (stereo not given) : 97.4

nuclei count reading for `COC(=O)c1cc(Br)c(=O)n(CCC2=CCCCC2)c1` : 122

nuclei count reading for `Cc1cc(C)n(C(=O)CNC(=O)c2cccs2)n1` : 182

nuclei count reading for `Oc1oc(-c2ccccc2)nc1C=NCc1ccncc1` : 104

nuclei count reading for O=C(NC1(C(F)(F)F)NC(=O)N(Cc2ccco2)C1=O)c1cccnc1 (stereo not given) : 122

nuclei count reading for `CC(=O)[C@@]1(O)CC[C@H]2[C@@H]3C[C@H](C)C4=CC(=O)C=C[C@]4(C)[C@@]3(F)[C@@H](O)C[C@@]21C` : 121

nuclei count reading for COc1ccc(N(CC(=O)N2c3ccccc3CC2C)S(=O)(=O)c2c(C)noc2C)cc1 (stereo not given) : 116

nuclei count reading for `c1cnn(-c2cc(N3CCOCC3)ncn2)c1` : 101

nuclei count reading for `OCC#CCSc1nnc(-c2ccccc2Br)o1` : 132

nuclei count reading for `COc1ccc(CSc2nnc(C)n2N)cc1Br` : 182

nuclei count reading for `O=S(=O)(CCOc1ccccc1)c1nc2ccccc2[nH]1` : 106

nuclei count reading for `CC(C)c1ccc(S(=O)(=O)N2CCN(C(=O)c3cccc(F)c3)CC2)cc1` : 118

nuclei count reading for `CCCOc1cc(C)c(S(=O)(=O)N2CCN(C)CC2)cc1C` : 96.1

nuclei count reading for `CN1CCCc2cc(C#N)c(=O)[nH]c21` : 85

nuclei count reading for COc1ccccc1C1/C(=C(\O)c2c(C)nc3c(C)cccn23)C(=O)C(=O)N1CCCN(C)C (stereo not given) : 121

====

Target: Voltage-gated potassium channel subunit beta-2 (Rattus norvegicus) (UniProt P62483)
Sequence (P62483 whole entry, looked up): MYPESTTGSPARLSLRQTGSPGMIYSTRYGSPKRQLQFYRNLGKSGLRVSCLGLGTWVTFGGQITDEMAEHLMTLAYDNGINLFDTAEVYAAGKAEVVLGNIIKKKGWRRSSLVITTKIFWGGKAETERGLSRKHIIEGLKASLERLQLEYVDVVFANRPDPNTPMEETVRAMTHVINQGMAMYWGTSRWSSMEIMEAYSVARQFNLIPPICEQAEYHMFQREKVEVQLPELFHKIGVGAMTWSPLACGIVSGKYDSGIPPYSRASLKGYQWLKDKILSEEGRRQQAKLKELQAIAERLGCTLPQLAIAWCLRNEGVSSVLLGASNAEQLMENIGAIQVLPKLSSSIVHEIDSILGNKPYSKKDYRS
Test: inhibitors of rat Kvbeta2 reductase activity – biochemical, NADPH fluorescence, primary screen (AID 622);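 note: slope of raw intensity against log time taken from 70 to 1610 s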
Settings: recombinant KvBeta, 4-cyanobenzaldehyde reduction, at 10 µM, stronger effect = higher value
This section presents compounds with their documented fluorescence slope values.
Hey, just send me the number, nothing else.

Example results:
COc1ccccc1C(=O)N1CCCC(c2nc(-c3cc(OC)c(OC)c(OC)c3)no2)C1 (stereo not drawn); -0.474
CC(C)(C)c1cc(C(=O)O)nn1-c1ccccc1; -0.482
O=C(Cn1cnc2c(nnn2-c2ccc(F)cc2)c1=O)NCc1ccco1; -0.596
Cc1c(NC(=O)C2CCCNC2=O)c(=O)n(-c2ccccc2)n1C (stereo not drawn); -0.495
Cn1cccc1C1NC(=O)c2c(sc3c2CCC(C(C)(C)C)C3)N1 (stereo not drawn); -0.19
CNC(=O)Oc1ccc2c(c1)[C@]1(C)CCN(C)[C@@H]1N2C; -0.435
COc1cccc(C2C(C#N)=C(N)OC3=C2C(=O)CCC3)c1OC(=O)c1ccco1 (stereo not drawn); -0.513
COc1ccc(-c2nn(-c3ccccc3)cc2/C=N/n2cnnc2)cc1OC; -0.464

# lookup: CCCCC(c1nnnn1C1CCCC1)N1CCN(C2CCCCC2)CC1 (stereo not drawn) on Voltage-gated potassium channel subunit beta-2 (Rattus norvegicus) (UniProt P62483), fluorescence slope = -0.314

# lookup: `CCN(CC)C(=O)CSc1nc2ccc(NC(=O)CSc3nccn3C)cc2s1` on Voltage-gated potassium channel subunit beta-2 (Rattus norvegicus) (UniProt P62483), fluorescence slope = -0.577

# lookup: `O=C(CN1C(=O)COc2ccccc21)NCCCN1CCc2ccccc2C1` on Voltage-gated potassium channel subunit beta-2 (Rattus norvegicus) (UniProt P62483), fluorescence slope = -0.625

# lookup: `C1COC(NC(C2CC2)C2CC2)=N1` on Voltage-gated potassium channel subunit beta-2 (Rattus norvegicus) (UniProt P62483), fluorescence slope = -0.468

# lookup: `COc1ccc(-n2ncc3c(NCc4ccc5c(c4)OCO5)ncnc32)cc1` on Voltage-gated potassium channel subunit beta-2 (Rattus norvegicus) (UniProt P62483), fluorescence slope = -0.539

# lookup: Cc1ccc(C)c(NC(=O)C2CCC(C)(C(=O)O)C2(C)C)c1 (stereo not drawn) on Voltage-gated potassium channel subunit beta-2 (Rattus norvegicus) (UniProt P62483), fluorescence slope = -0.603

# lookup: `COC(=O)c1[nH]c2ccccc2c1NS(=O)(=O)c1ccc(OC)cc1OC` on Voltage-gated potassium channel subunit beta-2 (Rattus norvegicus) (UniProt P62483), fluorescence slope = -0.524

# lookup: O=C(O)C1CSC2c3ccccc3C(=O)N12 (stereo not drawn) on Voltage-gated potassium channel subunit beta-2 (Rattus norvegicus) (UniProt P62483), fluorescence slope = -0.577

# lookup: CCOC(=O)C1CCCN(C(=O)CNS(=O)(=O)c2ccc(Br)s2)C1 (stereo not drawn) on Voltage-gated potassium channel subunit beta-2 (Rattus norvegicus) (UniProt P62483), fluorescence slope = -0.437

# lookup: `COc1ccc2oc(C)c(C(=O)Cn3ccnc3)c2c1` on Voltage-gated potassium channel subunit beta-2 (Rattus norvegicus) (UniProt P62483), fluorescence slope = -0.578
